# Test system: SK-BR-3
# protocol: drug sensitivity score (DSS), CellTiter-Blue viability (DSS (AUC-based score)); higher = stronger viability inhibition; extreme values may be limits of the assay
# assay context: incubation time: 72 h
endpoint name: drug sensitivity score

>>> result("Oc1ncnc2[nH]ncc12 [Allopurinol]")
0
>>> result("Nc1ncn([C@@H]2O[C@H](CO)[C@@H](O)[C@H]2O)c(=O)n1 [Azacitidine]")
0
>>> result("COc1cc2c(cc1O)CC[C@@H]1[C@@H]2CC[C@]2(C)[C@@H](O)CC[C@@H]12 [2-methoxyestradiol]")
2.73
>>> result("CC(C)(C)c1cnc(CSc2cnc(NC(=O)C3CCNCC3)s2)o1 [SNS-032]")
22
>>> result("COc1cc(F)c(F)c(Nc2ccc(I)cc2F)c1NS(=O)(=O)C1(C[C@H](O)CO)CC1 [RDEA119]")
0
>>> result("O=NN(CCCl)C(=O)NCCCl [Carmustine]")
0
>>> result("CC(=O)c1c(C)c2cnc(Nc3ccc(N4CCNCC4)cn3)nc2n(C2CCCC2)c1=O")
0

====

# Tested on: CAL-85-1
# protocol: drug sensitivity score (DSS), CellTiter-Blue viability (DSS (AUC-based score)); higher = stronger viability inhibition; extreme values may be limits of the assay
# assay context: incubation time: 72 h
Here, each record is paired with measured drug sensitivity score data.
endpoint name: drug sensitivity score

>>> measured_number("CC1(C)CNc2cc(NC(=O)c3cccnc3NCc3ccncc3)ccc21 [Motesanib]")
0
>>> measured_number("O=C1CN2Cc3c(ccc(Cl)c3Cl)N=C2N1 [Anagrelide]")
0
>>> measured_number("Nc1ncn([C@@H]2O[C@H](CO)[C@@H](O)[C@H]2O)c(=O)n1 [Azacitidine]")
0
>>> measured_number("Oc1ncnc2[nH]ncc12 [Allopurinol]")
0
>>> measured_number("CC(C)(C)c1cnc(CSc2cnc(NC(=O)C3CCNCC3)s2)o1 [SNS-032]")
22.1

====

# Test system: BT-549
# protocol: normalised response (% of control), CellTox Green; higher = less cell death (100 = DMSO, 0 = benzethonium chloride kill control)
# assay context: incubation time: 72 h
Here, each record is paired with measured normalised response data.
endpoint name: normalised response

>>> result("CC1(C)CNc2cc(NC(=O)c3cccnc3NCc3ccncc3)ccc21 [Motesanib] (100 nM)")
"106%"
>>> result("O=C1CN2Cc3c(ccc(Cl)c3Cl)N=C2N1 [Anagrelide] (10000 nM)")
"89.6%"
>>> result("CC1=C2C[C@H]3[C@@H](CC=C4C[C@@H](O)CC[C@@]43C)[C@@H]2CC[C@]12O[C@@H]1C[C@H](C)CN[C@H]1[C@H]2C [Cyclopamine] (10000 nM)")
"59%"
>>> result("COc1cc2c(cc1O)CC[C@@H]1[C@@H]2CC[C@]2(C)[C@@H](O)CC[C@@H]12 [2-methoxyestradiol] (100 nM)")
"110%"
>>> result("CC(=O)c1c(C)c2cnc(Nc3ccc(N4CCNCC4)cn3)nc2n(C2CCCC2)c1=O [Palbociclib] (10000 nM)")
"106%"
>>> result("CC1(C)CNc2cc(NC(=O)c3cccnc3NCc3ccncc3)ccc21 [Motesanib] (10000 nM)")
"103%"
>>> result("Oc1ncnc2[nH]ncc12 [Allopurinol] (100 nM)")
"94.6%"
>>> result("Nc1ncn([C@@H]2O[C@H](CO)[C@@H](O)[C@H]2O)c(=O)n1 [Azacitidine] (100 nM)")
"99.9%"
>>> result("Nc1ncn([C@@H]2O[C@H](CO)[C@@H](O)[C@H]2O)c(=O)n1 [Azacitidine] (1000 nM)")
"108%"
>>> result("CC1=C2C[C@H]3[C@@H](CC=C4C[C@@H](O)CC[C@@]43C)[C@@H]2CC[C@]12O[C@@H]1C[C@H](C)CN[C@H]1[C@H]2C [Cyclopamine] (100 nM)")
"102%"
